Reference source: patent US8658661B2

# experimental.target: recombinant human FLAP protein (Homo sapiens, UniProt P20292)
# Construct: made in house; host or cells: Sf9 insect cells (100,000×g membrane pellet used)
# Sequence (P20292 1-161): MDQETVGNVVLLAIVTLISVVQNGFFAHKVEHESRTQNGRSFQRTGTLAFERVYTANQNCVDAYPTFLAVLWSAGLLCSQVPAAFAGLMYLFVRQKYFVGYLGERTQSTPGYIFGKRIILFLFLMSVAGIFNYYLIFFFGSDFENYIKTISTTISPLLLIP
# assay.notes: FLAP binding assay (SPA, displacement of [125I]L-691,831)
# test.conditions: membranes of sf9 cells expressing recombinant human FLAP; [125I]L-691,831 probe; read-out: FLAP binding IC50
reported.endpoint: pIC50
Formally, pIC50 is defined as -log10 of the concentration c, with c in mol/L.

Prompt: I would be grateful if you could share the reported pIC50 for CC(C)C(C)(c1ccc(-c2cnc(N)nc2)cc1)c1noc(NCCS(C)(=O)=O)n1 (centres unmarked) .
Response: 7.39

Prompt: I would be grateful if you could share the reported pIC50 for C[C@](c1ccc(-c2cnc(N)nc2)cc1)(c1noc(-c2cnn(C3COC3)c2)n1)C1CCC1 .
Response: 6.89

Prompt: I would be grateful if you could share the reported pIC50 for CC(C)C(C)(c1ccc(-c2cnc(N)nc2)cc1)c1noc(C2CCCCN2)n1 (centres unmarked) .
Response: 7.68

Prompt: I would be grateful if you could share the reported pIC50 for CN(C)C(=O)Cn1cc(-c2nc([C@@](C)(c3ccc(-c4cnc(N)[nH]c4=O)cc3)C3CC3)no2)cn1 .
Response: 7.80

Prompt: I would be grateful if you could share the reported pIC50 for CN(C)C(=O)Cn1cc(-c2nc([C@@](C)(c3ccc(-c4cnc(N)nc4)cc3)C3CC3)no2)cn1 (single isomer, unassigned) .
Response: 8.72

---
Prompt: I would be grateful if you could share the reported pIC50 for Cc1ccc(-c2nc(C(C)(c3ccc(-c4cnc(N)nc4)cc3)C3CC3)no2)cn1 (centres unmarked) .
Response: 8.28

Prompt: I would be grateful if you could share the reported pIC50 for COCCNc1cnc(-c2nc(C(C)(c3ccc(-c4cnc(N)nc4)cc3)C3CCC3)no2)cn1 (centres unmarked) .
Response: 8.49

Prompt: I would be grateful if you could share the reported pIC50 for COCCNc1cnc(-c2nc([C@](C)(c3ccc(-c4cnc(N)nc4)cc3)C(C)C)no2)cn1 .
Response: 8.64

Prompt: I would be grateful if you could share the reported pIC50 for Cc1ncccc1-c1nc(C(C)(c2ccc(-c3cnc(N)nc3)cc2)C(C)C)no1 (centres unmarked) .
Response: 8.80

Prompt: I would be grateful if you could share the reported pIC50 for CC(C)[C@](C)(c1ccc(-c2cnc(N)nc2)cc1)c1noc(-c2ccn[nH]2)n1 .
Response: 8.16

Prompt: I would be grateful if you could share the reported pIC50 for C[C@@](c1ccc(-c2cnc(N)cn2)cc1)(c1noc(-c2cnc(N3CCNCC3)cn2)n1)C1CC1 .
Response: 8.34

Prompt: I would be grateful if you could share the reported pIC50 for Cn1cc(-c2nc([C@@](C)(c3ccc(-c4cnc(N)cn4)cc3)C3CC3)no2)cn1 .
Response: 8.70

Prompt: I would be grateful if you could share the reported pIC50 for CNC(=O)Cn1cc(-c2nc(C(C)(c3ccc(-c4cnc(N)nc4)cc3)C3CC3)no2)cn1 (centres unmarked) .
Response: 8.40

* * *

# experimental.target: recombinant human FLAP protein (Homo sapiens, UniProt P20292)
# Construct: made in house; host or cells: Sf9 insect cells (100,000×g membrane pellet used)
# assay.notes: FLAP binding assay (SPA, displacement of [125I]L-691,831)
# test.conditions: membranes of sf9 cells expressing recombinant human FLAP; [125I]L-691,831 probe; read-out: FLAP binding IC50
reported.endpoint: pIC50
Formally, pIC50 is defined as -log10 of the concentration c, with c in mol/L.

Here are 3 compounds together with their reported answers.
Prompt: I would be grateful if you could share the reported pIC50 for Cc1nc(N)ccc1-c1ccc([C@](C)(c2noc(-c3cnn(CC(=O)N(C)C)c3)n2)C2CC2)cc1 [Example 292] .
Response: 8.07

Prompt: I would be grateful if you could share the reported pIC50 for CNC(=O)Cn1cc(-c2nc(C(C)(c3ccc(-c4cnc(N)nc4)cc3)C3CCC3)no2)cn1 (stereo not shown) [Example 98] .
Response: 7.92

Prompt: I would be grateful if you could share the reported pIC50 for Cn1cc(-c2nc(C(C)(c3ccc(-c4cnc(N)nc4)cc3)C3CCC3)no2)cn1 (stereo not shown) [Example 33] .
Response: 8.18

Turning to the following compound.
Prompt: I would be grateful if you could share the reported pIC50 for CC(C)N1CCN(c2nc(C(C)(c3ccc(-c4cnc(N)nc4)cc3)C(C)C)no2)CC1 (stereo not shown) [Example 264] .
Response: 7.96

* * *

# experimental.target: recombinant human FLAP protein (Homo sapiens, UniProt P20292)
# Construct: made in house; host or cells: Sf9 insect cells (100,000×g membrane pellet used)
# assay.notes: FLAP binding assay (SPA, displacement of [125I]L-691,831)
# test.conditions: membranes of sf9 cells expressing recombinant human FLAP; [125I]L-691,831 probe; read-out: FLAP binding IC50
Below: a set of entries, each annotated with reported pIC50.
Formally, pIC50 is defined as -log10 of the concentration c, with c in mol/L.

Prompt: I would be grateful if you could share the reported pIC50 for C[C@@](c1ccc(-c2ccc(N)nc2)cc1)(c1noc(N2CCC(O)CC2)n1)C1CC1 [Example 282] .
Response: 8.19

Prompt: I would be grateful if you could share the reported pIC50 for CC(C)C(C)(c1ccc(-c2cnc(N)nc2)cc1)c1noc(-c2ccnn2C)n1 (stereo not shown) [Example 18] .
Response: 8.48

Prompt: I would be grateful if you could share the reported pIC50 for Cc1nc(N)cnc1-c1ccc([C@](C)(c2noc(-c3cnn(CC(=O)N(C)C)c3)n2)C2CC2)cc1 [Example 285] .
Response: 8.15

---
Prompt: I would be grateful if you could share the reported pIC50 for COCCn1cc(-c2nc([C@](C)(c3ccc(-c4cnc(N)nc4)cc3)C(C)C)no2)cn1 [Example 64] .
Response: 7.80

Prompt: I would be grateful if you could share the reported pIC50 for CC(C)C(C)(c1ccc(-c2cnc(N)nc2)cc1)c1noc(-c2cnn(CCN3CCOCC3)c2)n1 (stereo not shown) [Example 144] .
Response: 8.51

Prompt: I would be grateful if you could share the reported pIC50 for Cn1ccc(-c2nc(C(C)(c3ccc(-c4cnc(N)nc4)cc3)C3CC3)no2)n1 (stereo not shown) [Example 26] .
Response: 8.04

Prompt: I would be grateful if you could share the reported pIC50 for COc1ccncc1-c1nc(C(C)(c2ccc(-c3cnc(N)nc3)cc2)C(C)C)no1 (stereo not shown) [Example 11] .
Response: 8.72

Prompt: I would be grateful if you could share the reported pIC50 for CNC(=O)Cn1cc(-c2nc(C(C)(c3ccc(-c4cnc(N)nc4)cc3)C(C)C)no2)cn1 (stereo not shown) [Example 142] .
Response: 8.96

Prompt: I would be grateful if you could share the reported pIC50 for CC(C)C(C)(c1ccc(-c2cnc(N)nc2)cc1)c1noc(C2CCCCN2C(=O)OC(C)(C)C)n1 (stereo not shown) [Example 112] .
Response: 6.72

Prompt: I would be grateful if you could share the reported pIC50 for CC(C)C(C)(c1ccc(-c2cnc(N)nc2)cc1)c1noc(C2(C(=O)O)CCCCC2)n1 (stereo not shown) [Example 145] .
Response: 7.77
